The origin of these recorded values is ChEMBL document CHEMBL1137327.

experiment: Drug level in C57BL/6J DIO mouse plasma at 10 mg/kg, po after 22 days; assay type: ADME, organism-based; design: dose 10 mg/kg, route oral
Measured attribute: concentration at 528 h (ng/mL)
Your answer is read as ng/mL, so omit the unit and give the number.

For the compound O=C(NC1CCN(Cc2ccc3c(c2)OCO3)CC1)c1cc(=O)c2ccc(F)cc2o1 , give its reported concentration at 528 h.
3270

* * *

Readings of Cmax for the listed compounds
assay: Cmax in C57BL/6J DIO mouse brain at 10 mg/kg, po; format: ADME, organism-based; parameters: dose 10 mg/kg, route oral
Report the figure along with its unit, number first.

O=C(NC1CCN(Cc2ccc3c(c2)OCO3)CC1)c1cc(=O)c2ccc(F)cc2o1
4370 ng/g

Now look at this entry.
For the compound COc1ccc2c(=O)cc(C(=O)NC3CCN(Cc4ccc5c(c4)OCO5)CC3)oc2c1 , give its reported Cmax.
548 ng/g

* * *

biological target: Melanin-concentrating hormone receptor 1 (Homo sapiens, UniProt Q99705); test: Displacement of [125I]MCH from MCHr1 expressed in IMR32 cells; assay type: cell-based, IMR-32
Sequence (Q99705 whole entry): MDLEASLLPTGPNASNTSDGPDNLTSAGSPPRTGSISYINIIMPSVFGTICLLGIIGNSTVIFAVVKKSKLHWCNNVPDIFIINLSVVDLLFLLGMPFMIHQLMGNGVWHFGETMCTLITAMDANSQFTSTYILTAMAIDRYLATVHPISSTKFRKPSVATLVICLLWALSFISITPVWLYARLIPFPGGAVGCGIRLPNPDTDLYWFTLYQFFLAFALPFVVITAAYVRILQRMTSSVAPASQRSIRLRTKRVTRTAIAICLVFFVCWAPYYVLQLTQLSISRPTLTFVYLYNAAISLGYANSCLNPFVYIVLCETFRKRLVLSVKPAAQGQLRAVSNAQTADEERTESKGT
Readings of pIC50 for the listed molecules
A value of pIC50 is the negative decimal logarithm of a concentration given in moles per litre.

Past entries and their recorded results:
O=C(NC1CCN(Cc2ccc(F)cc2)CC1)c1cc(=O)c2ccc(F)cc2o1
6.80
COc1cccc(CN2CCC(NC(=O)c3cc(=O)c4ccc(F)cc4o3)CC2)c1
7.51
O=C(NC1CCN(Cc2cccc(F)c2)CC1)c1cc(=O)c2ccc(F)cc2o1
7.92

For the molecule CC(=O)c1ccc(CN2CCC(NC(=O)c3cc(=O)c4ccc(F)cc4o3)CC2)cc1 , give its reported pIC50.
7.41

* * *

assay: Drug level in anasthetized Beagle dog plasma at 3 mg/kg, iv after 30 mins; format: ADME, organism-based, Canis lupus familiaris; set-up: dose 3 mg/kg, route intravenous
Measured attribute: concentration at 0.5 h (µM)
Your answer is read as µM, so omit the unit and give the number.

For the compound O=C(NC1CCN(Cc2ccc3c(c2)OCO3)CC1)c1cc(=O)c2ccc(F)cc2o1 , give its reported concentration at 0.5 h.
5.9

* * *

target: UniProtKB Q99705; test: Antagonist activity at MCHr1 assessed as inhibition of MCH-mediated calcium ion release in intact IMR32 cells by FLIPR assay; format: functional, cell-based, IMR-32
Measured attribute: pIC50
A value of pIC50 is the negative decimal logarithm of a concentration given in moles per litre.

Past entries and their recorded results:
N#Cc1ccc2c(=O)cc(C(=O)NC3CCN(Cc4ccc5c(c4)OCO5)CC3)oc2c1
6.86
COc1cc2oc(C(=O)NC3CCN(Cc4ccc5c(c4)OCO5)CC3)cc(=O)c2cc1F
7.80
Cc1c(C(=O)NC2CCN(Cc3ccc4c(c3)OCO4)CC2)oc2cc(Cl)ccc2c1=O
7.17
O=C(NC1CCN(Cc2ccc3c(c2)OCCO3)CC1)c1cc(=O)c2ccc(F)cc2o1
6.77

State recorded pIC50 with UniProtKB Q99705, entry O=C(NC1CCN(Cc2ccc3c(c2)OCO3)CC1)c1cc(=O)c2cc(Cl)c(Cl)cc2o1 , no comment.
7.08

State recorded pIC50 with UniProtKB Q99705, entry O=C(NC1CCN(Cc2ccc3c(c2)OCO3)CC1)c1cc(=O)c2cc(Cl)ccc2o1 , no comment.
5.69

State recorded pIC50 with UniProtKB Q99705, entry O=C(NC1CCN(Cc2ccccc2F)CC1)c1cc(=O)c2ccc(F)cc2o1 , no comment.
5.67

State recorded pIC50 with UniProtKB Q99705, entry O=C(NC1CCN(Cc2ccc3c(c2)OCO3)CC1)c1cc(=O)c2ccc(C(F)(F)F)cc2o1 , no comment.
5.51

State recorded pIC50 with UniProtKB Q99705, entry O=C(NC1CCN(Cc2ccccc2)CC1)c1cc(=O)c2ccc(F)cc2o1 , no comment.
6.23

State recorded pIC50 with UniProtKB Q99705, entry O=C(NC1CCN(Cc2ccc3c(c2)OCO3)CC1)c1cc(=O)c2cc(F)c(F)cc2o1 , no comment.
7.89
